Reported values of pIC50 for individual entries
# TARGET OF ASSAY: Sentrin-specific protease 1 (Homo sapiens) (UniProt Q9P0U3)
# Sequence (Q9P0U3 419-644 limits assumed): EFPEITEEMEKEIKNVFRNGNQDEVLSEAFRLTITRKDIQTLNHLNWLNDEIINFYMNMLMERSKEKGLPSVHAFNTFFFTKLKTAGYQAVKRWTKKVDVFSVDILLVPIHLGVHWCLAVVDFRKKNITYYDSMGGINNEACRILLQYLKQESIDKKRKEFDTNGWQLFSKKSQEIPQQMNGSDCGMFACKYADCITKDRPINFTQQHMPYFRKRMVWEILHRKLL
# ASSAY TEXT: potency of human SENP1 inhibitors, dose response, biochemical, kinetic FRET (AID 651697)
# MEASUREMENT CONTEXT: recombinant SENP1 catalytic domain, kinetic FRET protease assay
pIC50: −log10 of the molar value.
PROPERTY NAME: pIC50

COMPOUND | MEASURED
Cc1nc2ccc(NS(=O)(=O)c3ccc(F)cc3F)cc2s1 | 4.73
O=C(c1ccccc1)[C@@H]1[C@@H]2C(=O)N(c3ccc(F)cc3)C(=O)[C@@H]2C2CCCN21 (some centres undefined) | 5.11
Oc1ccc(Cl)cc1C1=Nc2ccccc2N=C(c2ccco2)C1 | 5.08
COCCNC(=O)c1cccc2c1C(=O)c1ccc(N3CCOCC3)cc1S2(=O)=O | 4.85
